# Test: Multi-component pharmacokinetics of AAs in rats after oral administration of AF and HAF extracts (HPLC-MS/MS of plasma)
# Parameters: species or system Sprague–Dawley (SD) rats
# Settings: Sprague-Dawley, rat, in vivo, 15 mg/kg, HAF extract, high dose (15.0 mg/kg as AA I), analyte dose mg/kg: AA I 15.0, AA II 1.29, AA C 7.66, AA D 7.56, 7-OH AA I 12.41, n = 6, read-out: Vz/F
Consider the following compounds and their measured Vd/F readings.
Unit L/kg implied. Number only.

The cases that follow already have their Vd/F on record.
Compound: COc1cc(O)cc2c1cc([N+](=O)[O-])c1c(C(=O)O)cc3c(c12)OCO3 [AA D]
Vd/F (L/kg): 47.9

Compound: COc1c(O)ccc2c1cc([N+](=O)[O-])c1c(C(=O)O)cc3c(c12)OCO3 [7-OH AA I]
Vd/F (L/kg): 47.4

Compound: O=C(O)c1cc2c(c3c1c([N+](=O)[O-])cc1ccccc13)OCO2 [AA II]
Vd/F (L/kg): 0.72

Recorded result, COc1cccc2c1cc([N+](=O)[O-])c1c(C(=O)O)cc3c(c12)OCO3 [AA I] , Vd/F: 5.53

====

# Test: Multi-component pharmacokinetics of AAs in rats after oral administration of AF and HAF extracts (HPLC-MS/MS of plasma)
# Parameters: species or system Sprague–Dawley (SD) rats
# Settings: Sprague-Dawley, rat, in vivo, 15 mg/kg, HAF extract, high dose (15.0 mg/kg as AA I), analyte dose mg/kg: AA I 15.0, AA II 1.29, AA C 7.66, AA D 7.56, 7-OH AA I 12.41, n = 6
Observation Type: AUC(0-inf) (ng·h/mL)
Provide only the numeric value, understood in ng·h/mL.

Smiles String: O=C(O)c1cc2c(c3c1c([N+](=O)[O-])cc1ccccc13)OCO2
AUC(0-inf), ng·h/mL: 5630
//
Smiles String: COc1cccc2c1cc([N+](=O)[O-])c1c(C(=O)O)cc3c(c12)OCO3
AUC(0-inf), ng·h/mL: 11800
//
Smiles String: COc1c(O)ccc2c1cc([N+](=O)[O-])c1c(C(=O)O)cc3c(c12)OCO3
AUC(0-inf), ng·h/mL: 1130

GET /value?item= COc1cc(O)cc2c1cc([N+](=O)[O-])c1c(C(=O)O)cc3c(c12)OCO3 &field=AUC(0-inf) returns 590

====

Parameter: Cmax. Scope: all listed entries.
# Test: Multi-component pharmacokinetics of AAs in rats after oral administration of AF and HAF extracts (HPLC-MS/MS of plasma)
# Set-up: species or system Sprague–Dawley (SD) rats
# Settings: Sprague-Dawley, rat, in vivo, 15 mg/kg, HAF extract, high dose (15.0 mg/kg as AA I), analyte dose mg/kg: AA I 15.0, AA II 1.29, AA C 7.66, AA D 7.56, 7-OH AA I 12.41, n = 6

So for COc1cccc2c1cc([N+](=O)[O-])c1c(C(=O)O)cc3c(c12)OCO3 , the logged Cmax turned out to be 3470 ng/mL

// recorded Cmax for COc1c(O)ccc2c1cc([N+](=O)[O-])c1c(C(=O)O)cc3c(c12)OCO3 : 531 ng/mL

Sure, the documented Cmax for O=C(O)c1cc2c(c3c1c([N+](=O)[O-])cc1ccccc13)OCO2 is 528 ng/mL

Looking up COc1cc(O)cc2c1cc([N+](=O)[O-])c1c(C(=O)O)cc3c(c12)OCO3 , I found its Cmax recorded as 148 ng/mL
